Consider the following molecules and their measured IC50 readings.
- Tested on: P. falciparum (3D7 strain)
- METHOD NOTES: In vitro antiplasmodial activity, P. falciparum blood-stage parasites, SYBR Green I
- Assay type: cell-based, Plasmodium falciparum
- CONDITIONS USED: Plasmodium falciparum, 3D7, 3D7 strain, Table 2 strain panel; read-out: IC50
- Method: The P. falciparum strains were cultivated in human blood cells (hRBC) O^+, while P. knowlesi was cultivated in rhesus red blood cells (rRBC) as described. […] The antiplasmodial activity of brussonol and derivatives was evaluated against P. falciparum blood parasites 3D7(chloroquine-sensitive). […] The parasitemia was determined by microscope analysis of thin blood smears stained with Giemsa 10% (v/v) after fixation with methanol. […]

[
  {
    "MOLECULE": "O=C1C(O)=C([C@H]2CC[C@H](c3ccc(Cl)cc3)CC2)C(=O)c2ccccc21 [atovaquone, reference compound]",
    "IC50 (nM)": 0.7
  },
  {
    "MOLECULE": "CC(C)c1cc2c(c(O)c1O)C[C@@]13CCCC(C)(C)[C@@H]1C[C@@H]2O3 [Compound 1, brussonol]",
    "IC50 (nM)": 13000
  },
  {
    "MOLECULE": "CCc1nc(N)nc(N)c1-c1ccc(Cl)cc1 [pyrimethamine]",
    "IC50 (nM)": 60
  },
  {
    "MOLECULE": "C[C@H]1[C@H](OC(=O)CCC(=O)O)O[C@@H]2O[C@@]3(C)CC[C@H]4[C@H](C)CC[C@@H]1[C@@]24OO3 [artesunate]",
    "IC50 (nM)": 8
  }
]

* * *

- Test system: P. falciparum (3D7 strain)
- METHOD NOTES: In vitro antiplasmodial activity, P. falciparum blood-stage parasites, SYBR Green I
- Assay type: cell-based, Plasmodium falciparum
- CONDITIONS USED: Plasmodium falciparum, 3D7, 72 h, 3D7 strain, 72 h, SYBR Green I; read-out: IC50^Pf
- Experimental: The P. falciparum strains were cultivated in human blood cells (hRBC) O^+, while P. knowlesi was cultivated in rhesus red blood cells (rRBC) as described. […] The antiplasmodial activity of brussonol and derivatives was evaluated against P. falciparum blood parasites 3D7(chloroquine-sensitive). […] The parasitemia was determined by microscope analysis of thin blood smears stained with Giemsa 10% (v/v) after fixation with methanol. […]
pIC50: −log10 of the molar value.
MEASURED PROPERTY: pIC50

[
  {
    "COMPOUND": "COc1c(C(C)C)cc2c(c1OC)CC13CCCC(C)(C)C1CC2O3 (stereo not drawn)",
    "SYSTEM TESTED": "P. falciparum (3D7 strain)",
    "MEASURED PROPERTY": "pIC50",
    "RESULT": 5.28
  },
  {
    "COMPOUND": "COc1c(C(C)C)cc2c(c1OC)C[C@@]13CCCC[C@@H]1C[C@@H]2O3 (racemic)",
    "SYSTEM TESTED": "P. falciparum (3D7 strain)",
    "MEASURED PROPERTY": "pIC50",
    "RESULT": "~5.30"
  },
  {
    "COMPOUND": "Oc1ccc2c(c1O)CC13CCCCC1CC2O3 (stereo not drawn)",
    "SYSTEM TESTED": "P. falciparum (3D7 strain)",
    "MEASURED PROPERTY": "pIC50",
    "RESULT": "< 5.00"
  },
  {
    "COMPOUND": "COc1c2c(c(Br)c(C(C)C)c1OC)C1CC3CCCCC3(C2)O1 (stereo not drawn)",
    "SYSTEM TESTED": "P. falciparum (3D7 strain)",
    "MEASURED PROPERTY": "pIC50",
    "RESULT": 5.25
  },
  {
    "COMPOUND": "COc1c2c(c(OC)c(C(C)C)c1OC)[C@@H]1C[C@H]3C(C)(C)CCC[C@@]3(C2)O1 (racemic)",
    "SYSTEM TESTED": "P. falciparum (3D7 strain)",
    "MEASURED PROPERTY": "pIC50",
    "RESULT": "~5.30"
  },
  {
    "COMPOUND": "COc1c2c(c(Br)c(C(C)C)c1OC)[C@@H]1C[C@H]3C(C)(C)CCC[C@@]3(C2)O1 (racemic)",
    "SYSTEM TESTED": "P. falciparum (3D7 strain)",
    "MEASURED PROPERTY": "pIC50",
    "RESULT": "~5.30"
  },
  {
    "COMPOUND": "COc1c2c(c(-c3ccccc3)c(C(C)C)c1OC)[C@@H]1C[C@H]3C(C)(C)CCC[C@@]3(C2)O1 (racemic)",
    "SYSTEM TESTED": "P. falciparum (3D7 strain)",
    "MEASURED PROPERTY": "pIC50",
    "RESULT": 5.24
  },
  {
    "COMPOUND": "COc1ccc2c(c1OC)C[C@@]13CCCC(C)(C)[C@@H]1C[C@@H]2O3 (racemic)",
    "SYSTEM TESTED": "P. falciparum (3D7 strain)",
    "MEASURED PROPERTY": "pIC50",
    "RESULT": "< 5.00"
  },
  {
    "COMPOUND": "O=C1C=CC(=O)C2=C1CC13CCCCC1CC2O3 (stereo not drawn)",
    "SYSTEM TESTED": "P. falciparum (3D7 strain)",
    "MEASURED PROPERTY": "pIC50",
    "RESULT": "< 5.00"
  },
  {
    "COMPOUND": "COc1c2c(c(-c3ccccc3)c(C(C)C)c1OC)[C@@H]1C[C@H]3CCCC[C@@]3(C2)O1 (racemic)",
    "SYSTEM TESTED": "P. falciparum (3D7 strain)",
    "MEASURED PROPERTY": "pIC50",
    "RESULT": 5.23
  },
  {
    "COMPOUND": "Oc1ccc(O)c2c1C[C@@]13CCCC[C@@H]1C[C@@H]2O3 (racemic)",
    "SYSTEM TESTED": "P. falciparum (3D7 strain)",
    "MEASURED PROPERTY": "pIC50",
    "RESULT": "< 5.00"
  },
  {
    "COMPOUND": "CC(C)c1cc2c(c(O)c1O)C[C@@]13CCCC(C)(C)[C@@H]1C[C@@H]2O3",
    "SYSTEM TESTED": "P. falciparum (3D7 strain)",
    "MEASURED PROPERTY": "pIC50",
    "RESULT": "~4.70"
  },
  {
    "COMPOUND": "COc1ccc(OC)c2c1CC13CCCCC1CC2O3 (stereo not drawn)",
    "SYSTEM TESTED": "P. falciparum (3D7 strain)",
    "MEASURED PROPERTY": "pIC50",
    "RESULT": "< 5.00"
  },
  {
    "COMPOUND": "COc1ccc2c(c1OC)CC13CCCCC1CC2O3 (stereo not drawn)",
    "SYSTEM TESTED": "P. falciparum (3D7 strain)",
    "MEASURED PROPERTY": "pIC50",
    "RESULT": "< 5.00"
  },
  {
    "COMPOUND": "CC(C)c1cc2c(c(O)c1O)C[C@@]13CCCC[C@@H]1C[C@@H]2O3 (racemic)",
    "SYSTEM TESTED": "P. falciparum (3D7 strain)",
    "MEASURED PROPERTY": "pIC50",
    "RESULT": "< 5.00"
  }
]

* * *

Consider the following molecules and their measured IC50 readings.
- Tested on: P. falciparum K1 strain
- METHOD NOTES: Resistance assessment, K1 strain
- Assay type: cell-based
- CONDITIONS USED: Plasmodium falciparum

[
  {
    "MOLECULE": "CC(C)c1cc2c(c(O)c1O)C[C@@]13CCCC(C)(C)[C@@H]1C[C@@H]2O3 [Compound 1, brussonol]",
    "UNIT DESCRIPTOR": "µM",
    "BOUND SIGN": "=",
    "IC50": 6.6
  },
  {
    "MOLECULE": "C[C@H]1[C@H](OC(=O)CCC(=O)O)O[C@@H]2O[C@@]3(C)CC[C@H]4[C@H](C)CC[C@@H]1[C@@]24OO3 [artesunate]",
    "UNIT DESCRIPTOR": "µM",
    "BOUND SIGN": "=",
    "IC50": 0.007
  },
  {
    "MOLECULE": "CCc1nc(N)nc(N)c1-c1ccc(Cl)cc1 [pyrimethamine]",
    "UNIT DESCRIPTOR": "µM",
    "BOUND SIGN": ">",
    "IC50": 10
  }
]

Where do the numbers come from? From paper PMC9321043.
